Exercise: state measured IC50 for each of the molecules provided.
- TEST SYSTEM: S. Aureus MetRS (Staphylococcus aureus)
- Sequence (Q5HII6 whole entry): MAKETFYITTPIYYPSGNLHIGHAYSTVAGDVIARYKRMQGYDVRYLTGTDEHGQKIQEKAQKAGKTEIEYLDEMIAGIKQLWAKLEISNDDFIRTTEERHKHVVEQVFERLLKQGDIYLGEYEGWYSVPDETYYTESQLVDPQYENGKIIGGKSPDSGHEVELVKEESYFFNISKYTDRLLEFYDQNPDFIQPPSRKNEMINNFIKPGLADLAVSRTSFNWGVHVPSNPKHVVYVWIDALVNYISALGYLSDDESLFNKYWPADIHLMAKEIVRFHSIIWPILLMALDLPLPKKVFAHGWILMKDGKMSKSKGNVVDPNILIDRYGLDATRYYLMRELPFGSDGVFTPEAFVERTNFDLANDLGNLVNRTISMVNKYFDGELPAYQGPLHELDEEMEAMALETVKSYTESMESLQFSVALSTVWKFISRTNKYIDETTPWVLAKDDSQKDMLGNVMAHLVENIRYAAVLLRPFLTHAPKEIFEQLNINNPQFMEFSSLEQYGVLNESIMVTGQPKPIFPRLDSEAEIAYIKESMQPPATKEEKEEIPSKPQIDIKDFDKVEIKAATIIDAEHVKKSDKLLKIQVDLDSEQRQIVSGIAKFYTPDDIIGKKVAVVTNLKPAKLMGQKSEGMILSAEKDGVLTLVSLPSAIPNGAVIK

Request: Read off the recorded IC50 for COc1cc(Cl)c(Oc2cc(NCc3nc4ccccc4[nH]3)nc(N3CCN(C(=O)N4CCOCC4)CC3)n2)cc1OC [Compound 6.134]
Result: < 50 nM

Request: Read off the recorded IC50 for COc1cc(Cl)c(Oc2cc(NCc3nc4ccccc4[nH]3)nc(N3CCN(c4ncccn4)CC3)n2)cc1OC [Compound 6.90]
Result: < 50 nM

Request: Read off the recorded IC50 for COc1ccc(Oc2cc(N3CCCC3CO)nc(NCc3nc4ccccc4[nH]3)n2)c(Cl)c1 (centres unmarked) [Compound 5.51]
Result: < 50 nM

Request: Read off the recorded IC50 for COc1cc(Cl)c(Oc2cc(NCc3nc4ccccc4[nH]3)nc(N3CCN(CCN4CCCC4)CC3)n2)cc1OC [Compound 6.142]
Result: < 50 nM

Request: Read off the recorded IC50 for COc1cc(Cl)c(Oc2cc(NCc3nc4ccccc4[nH]3)nc(N3CCN(C(=O)CNc4nccs4)CC3)n2)cc1OC [Compound 6.126]
Result: < 50 nM

Request: Read off the recorded IC50 for COc1cc(Cl)c(Oc2cc(NCc3nc4ccccc4[nH]3)nc(N3CCC(N4CCOCC4)CC3)n2)cc1OC [Compound 6.138]
Result: < 50 nM

Request: Read off the recorded IC50 for COc1ccc(Oc2cc(NNc3cc(=O)c4ccccc4[nH]3)nc(N(C)C)n2)c(Cl)c1 [Compound 6.06]
Result: < 50 nM

Request: Read off the recorded IC50 for COc1cc(Cl)c(Oc2cc(NCc3nc4ccccc4[nH]3)nc(N3CCN(c4cnccn4)CC3)n2)cc1OC [Compound 6.93]
Result: < 50 nM

Request: Read off the recorded IC50 for COc1ccc(Oc2cc(N3CCOCC3)nc(NCc3nc4ccccc4[nH]3)n2)c(Cl)c1 [Compound 5.07]
Result: < 50 nM

Request: Read off the recorded IC50 for COc1ccc(Oc2cc(NCc3nc4ccccc4[nH]3)nc(N3CCN(c4ncccn4)CC3)n2)c(Cl)c1 [Compound 6.45]
Result: < 50 nM

Request: Read off the recorded IC50 for COc1ccc(Oc2cc(NCc3nc4ccccc4[nH]3)nc(N3CCN(C(C)=O)CC3)n2)c(Cl)c1 [Compound 6.19]
Result: < 50 nM

Request: Read off the recorded IC50 for CC1CN(c2cc(Oc3ccc(Cl)cc3Cl)nc(NCc3nc4ccccc4[nH]3)n2)CC(C)N1 (centres unmarked) [Compound 5.28]
Result: < 50 nM

Request: Read off the recorded IC50 for COc1cc(Cl)c(Oc2cc(NCc3nc4ccccc4[nH]3)nc(N(C)C)n2)cc1OC [Compound 6.83]
Result: < 50 nM

Request: Read off the recorded IC50 for COc1cc(Cl)c(Oc2cc(NCc3nc4ccccc4[nH]3)nc(N3CCN(CCN4CCOCC4)CC3)n2)cc1OC [Compound 6.140]
Result: < 50 nM

Request: Read off the recorded IC50 for O=C1CN(c2nc(NCc3nc4ccccc4[nH]3)cc(Oc3ccc(Cl)cc3Cl)n2)CCN1 [Compound 6.23]
Result: < 50 nM

Request: Read off the recorded IC50 for COc1cc(Cl)c(Oc2cc(NCc3nc4ccccc4[nH]3)nc(N3CCC(CN4CCCC4=O)CC3)n2)cc1OC [Compound 6.145]
Result: < 50 nM

Request: Read off the recorded IC50 for COc1cc(Cl)c(Oc2cc(NCc3nc4ccccc4[nH]3)nc(N3CCN(c4ccncc4)CC3)n2)cc1OC [Compound 6.95]
Result: < 50 nM

Request: Read off the recorded IC50 for COc1cc(Cl)c(Oc2cc(NCc3nc4ccccc4[nH]3)nc(N3CCN(C(=O)N4CCCC4)CC3)n2)cc1OC [Compound 6.144]
Result: < 50 nM

Request: Read off the recorded IC50 for COc1cc(Cl)c(Oc2cc(NCc3nc4ccccc4[nH]3)nc(N3CCN(c4ncncn4)CC3)n2)cc1OC [Compound 6.105]
Result: < 50 nM

Request: Read off the recorded IC50 for COc1cc(Cl)c(Oc2cc(NCc3nc4ccccc4[nH]3)nc(N3CCN(Cn4ccnc4C)CC3)n2)cc1OC [Compound 6.143]
Result: < 50 nM

Request: Read off the recorded IC50 for COc1cc(Cl)c(Oc2cc(NCc3nc4ccccc4[nH]3)nc(N3CCN(c4ccccn4)CC3)n2)cc1OC [Compound 6.91]
Result: < 50 nM

Request: Read off the recorded IC50 for COc1cc(Cl)c(Oc2cc(NCc3nc4ccccc4[nH]3)nc(N3CCNC(=O)C3)n2)cc1OC [Compound 6.56]
Result: < 50 nM

Request: Read off the recorded IC50 for COc1cc(Cl)c(Oc2cc(NCc3nc4ccccc4[nH]3)nc(N3CCN(C(C)=O)CC3)n2)cc1OC [Compound 6.55]
Result: < 50 nM

Request: Read off the recorded IC50 for COc1cc(Cl)c(Oc2cc(NCc3nc4ccccc4[nH]3)nc(N3CCN(CCCN4CCOCC4)CC3)n2)cc1OC [Compound 6.94]
Result: < 50 nM

Request: Read off the recorded IC50 for COc1ccnc(N2CCN(c3nc(NCc4nc5ccccc5[nH]4)cc(Oc4cc(OC)c(OC)cc4Cl)n3)CC2)n1 [Compound 6.96]
Result: < 50 nM

Request: Read off the recorded IC50 for COc1ccc(Oc2cc(N3CCN(c4ncccn4)CC3)nc(NCc3nc4ccccc4[nH]3)n2)c(Cl)c1 [Compound 5.70]
Result: < 50 nM

Request: Read off the recorded IC50 for COc1cc(Cl)c(Oc2cc(NCc3nc4ccccc4[nH]3)nc(N3CCCN(C(C)=O)CC3)n2)cc1OC [Compound 6.63]
Result: < 50 nM

Request: Read off the recorded IC50 for COc1ccc(Oc2cc(N3CC(C)NC(C)C3)nc(NCc3nc4ccccc4[nH]3)n2)c(Cl)c1 (centres unmarked) [Compound 5.26]
Result: < 50 nM

Request: Read off the recorded IC50 for COc1ccc(Oc2cc(NCc3nc4ccccc4[nH]3)nc(N3CCN(C(=O)N(C)C)CC3)n2)c(Cl)c1 [Compound 6.49]
Result: < 50 nM
